Data provenance is ChEMBL document CHEMBL1201862.

Reported values of IC50 for individual entries
Target: Calpain-2 catalytic subunit (Sus scrofa, UniProt P43367)
Sequence (P43367 whole entry): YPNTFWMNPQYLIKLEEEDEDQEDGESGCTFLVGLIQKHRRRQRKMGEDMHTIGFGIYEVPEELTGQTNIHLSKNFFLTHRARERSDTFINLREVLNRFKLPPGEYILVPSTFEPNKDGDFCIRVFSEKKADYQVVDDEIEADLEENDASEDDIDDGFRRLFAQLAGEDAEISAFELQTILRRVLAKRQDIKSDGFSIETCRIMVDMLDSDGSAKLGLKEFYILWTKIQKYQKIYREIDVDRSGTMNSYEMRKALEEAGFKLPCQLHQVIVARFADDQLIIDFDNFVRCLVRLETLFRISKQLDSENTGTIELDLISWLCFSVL
Assay: m-calpain protease blockers, concentration series – biochemical, fluorogenic peptide substrate, dose response (AID 1420)
Assay type: functional

COc1ccccc1/C=N/NC(=O)c1ccc(Br)cc1 : 45.9 µM (not active)
COc1ccc(CNc2oc(COc3ccc(Cl)cc3)nc2C#N)cc1 : 4 µM (not active)
Cc1c(C(=O)c2ccc(N(C)C)cc2)c2ccccn2c1CCC#N : > 50 µM (not active)

Q) Value wanted: IC50 (Calpain-2 catalytic subunit (Sus scrofa, UniProt P43367)) of entry COC(=O)c1c(NC(NC(C)=O)C(Cl)(Cl)Cl)sc2c1CCCC2 (stereo not given)
A) > 50 µM (not active)

Q) Also O=C(O)C(Cc1ccccc1)N1C(=O)/C(=C/c2cccc3ccccc23)SC1=S (stereo not given) , if possible.
A) > 50 µM (not active)

Q) Also O=C(C1CCC(=O)N1C1CCCCC1)N1CCC2(CC1)OCCO2 (stereo not given) , if possible.
A) 8.43 µM (not active)

Q) Also CCCC/N=C(/C)c1c(O)oc2ccccc2c1=O , if possible.
A) 19.7 µM (not active)

====

Molecular target: Tyrosine-protein phosphatase non-receptor type 7 (Homo sapiens)
Sequence (P35236 whole entry): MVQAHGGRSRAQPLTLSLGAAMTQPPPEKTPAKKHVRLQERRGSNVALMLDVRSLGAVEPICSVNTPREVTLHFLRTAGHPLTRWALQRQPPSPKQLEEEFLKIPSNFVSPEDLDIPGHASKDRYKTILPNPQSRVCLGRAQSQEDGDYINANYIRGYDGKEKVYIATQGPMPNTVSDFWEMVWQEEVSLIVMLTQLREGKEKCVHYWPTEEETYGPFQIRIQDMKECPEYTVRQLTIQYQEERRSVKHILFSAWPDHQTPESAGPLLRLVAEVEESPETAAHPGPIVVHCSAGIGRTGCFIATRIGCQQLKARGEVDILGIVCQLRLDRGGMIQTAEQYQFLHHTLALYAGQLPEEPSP
Assay: HePTP tyrosine phosphatase activity blockers – biochemical, absorbance, leukemia target, primary screen (AID 521)
Format: functional
Activity calls are given as the source filed them.
Reported values of IC50 for individual entries

Consider the following illustrative entries.
CCn1c2ccccc2c2nnc(SCC(=O)N3CC(C)OC(C)C3)nc21 (centres undefined) : > 100 µM (not active)
Cn1c(=O)c2c(nc(SCc3cccnc3)n2Cc2ccc(F)cc2)n(C)c1=O : > 100 µM (not active)
Cn1nnnc1SCC1=C(C(=O)O)N2C(=O)[C@@H](NC(=O)[C@H](O)c3ccccc3)[C@H]2SC1 [CEFAMANDOLE SODIUM] : 0.1 µM (active)

# input for lookup
Q) What does the data say about its IC50? Entry: COc1ccc(Cc2nnc(NC(=O)c3ccco3)s2)cc1OC
A) > 100 µM (not active)
